Source of measurements: ChEMBL document CHEMBL3352668

assay: Cytotoxicity against human HeLa cells by MTS assay; type: cell-based; conditions: HeLa cells
So I've got a bunch of molecules here, and I need their log10(CC50) values.
Note: values are log10 of CC50 expressed in µg/mL.

Lab note: measured log10(CC50) of FC1CN=C(c2ccc3cc(-c4ccc(-c5cc6ccc(C7=NCC(F)CN7)cc6o5)cc4)[nH]c3c2)NC1 (stereo not drawn) was 1.68

response.value for OC1CN=C(c2ccc3cc(-c4ccc(-c5cc6ccc(C7=NCC(O)CN7)cc6o5)cc4)[nH]c3c2)NC1 (stereo not drawn) (field: log10(CC50)) = 1.08

Please fill in: log10(CC50) reported for c1cc2cc(-c3ccc(-c4cc5ccc(C6=NCCN6)cc5o4)s3)[nH]c2cc1C1=NCCN1 = 2.26

Quick note, log10(CC50) for FC1CN=C(c2ccc3cc(-c4ccc(-c5cc6ccc(C7=NCC(F)CN7)cc6o5)cn4)[nH]c3c2)NC1 (stereo not drawn) landed at 1.29

# log10(CC50) (molecule: c1cc2cc(-c3ccc(-c4cnc(N5CCOCC5)nc4)cc3)[nH]c2cc1C1=NCCCN1 ) is 0.30

# molecule CC1CNC(c2ccc3cc(-c4ccc(-c5cc6ccc(C7=NC(C)CN7)cc6o5)s4)[nH]c3c2)=N1 (stereo not drawn) ; its log10(CC50) = 1.16

Value of log10(CC50) reported for the molecule CC1CNC(c2ccc3cc(-c4ccc(-c5cc6ccc(C7=NC(C)CN7)cc6o5)cc4)[nH]c3c2)=N1 (stereo in doubt) is 0.76

Record summary for Fc1cc(-c2cc3ccc(C4=NCCCN4)cc3[nH]2)ccc1-c1cc2ccc(C3=NCCCN3)cc2o1 : reported log10(CC50) = 1.16

* * *

Please go through the items and note down their MIC.
test system: Enterococcus faecalis; experiment: Antimicrobial activity against vancomycin-resistant Enterococcus faecalis ATCC 51575 by CLSI method; type: functional; details: Enterococcus faecalis, ATCC 51575; read-out: MIC
Quick reminder: number only, in µg/mL, skip the unit.

The value of MIC measured for the molecule c1cc2cc(-c3ccc(-c4cn5ccc(C6=NCCCN6)cc5n4)cc3)[nH]c2cc1C1=NCCCN1 turned out to be 1.25

According to the records, this molecule NCCCNc1cc(-c2cc3ccc(C4=NCCCN4)cc3[nH]2)ccc1-c1cc2ccc(C3=NCCCN3)cc2o1 displays MIC of 1.25

Noted for FC1CN=C(c2ccc3cc(-c4ccc(-c5cc6ccc(C7=NCC(F)CN7)cc6o5)cc4)[nH]c3c2)NC1 (stereo not drawn) : its MIC reads 0.31

Per the records, this molecule ( c1cc2cc(-c3ccc(-c4cc5ccc(C6=NCCN6)cc5o4)s3)[nH]c2cc1C1=NCCN1 ) has MIC equal to 1.56

MIC measured on FC1CN=C(c2ccc3cc(-c4ccc(-c5cc6ccc(C7=NCC(F)CN7)cc6o5)cn4)[nH]c3c2)NC1 (stereo not drawn) = 0.63

The molecule listed as Fc1cc(-c2cc3ccc(C4=NCCCN4)cc3[nH]2)ccc1-c1cc2ccc(C3=NCCCN3)cc2o1 has a reported MIC of 0.16

Form: molecule = CN(C)c1ccc(-c2ccc(-c3cc4ccc(C5=NCCCN5)cc4[nH]3)cc2)cc1 ; MIC = 3.1

Input CC1CNC(c2ccc3cc(-c4ccc(-c5cc6ccc(C7=NC(C)CN7)cc6o5)cc4)[nH]c3c2)=N1 (stereo in doubt) . Output MIC: 0.39
